ASSAYED SYSTEM: GFLOMT1 (Glaucium flavum)
ASSAY TEXT: Standard OMT assay, substrate specificity of recombinant GFLOMT1
Type: biochemical
CONDITIONS: substrate conversion in the standard OMT assay in the presence of SAM (percent)
Substrate specificity, enzyme GFLOMT1 for assorted compounds

COMPOUND: COc1cc2c(cc1O)C(Cc1ccc(O)c(O)c1)NCC2 (racemic) [(R,S)-6-O-Methylnorlaudanosoline, 6-O-Methylnorlaudanosoline]
Substrate specificity, enzyme GFLOMT1: 87

COMPOUND: COc1cc2c(cc1O)[C@@H]1Cc3ccc(OC)c(OC)c3CN1CC2 (racemic) [(R,S)-Tetrahydrocolubamine, Tetrahydrocolumbamine]
Substrate specificity, enzyme GFLOMT1: 19

COMPOUND: COc1cc2c(cc1O)C(Cc1ccc(O)c(O)c1)N(C)CC2 (racemic) [(R,S)-6-O-Methyllaudanosoline, 6-O-Methyllaudanosoline]
Substrate specificity, enzyme GFLOMT1: 68
